assayed-system: Nitric oxide synthase, inducible (Homo sapiens, UniProt P35228)
Sequence (P35228 whole entry): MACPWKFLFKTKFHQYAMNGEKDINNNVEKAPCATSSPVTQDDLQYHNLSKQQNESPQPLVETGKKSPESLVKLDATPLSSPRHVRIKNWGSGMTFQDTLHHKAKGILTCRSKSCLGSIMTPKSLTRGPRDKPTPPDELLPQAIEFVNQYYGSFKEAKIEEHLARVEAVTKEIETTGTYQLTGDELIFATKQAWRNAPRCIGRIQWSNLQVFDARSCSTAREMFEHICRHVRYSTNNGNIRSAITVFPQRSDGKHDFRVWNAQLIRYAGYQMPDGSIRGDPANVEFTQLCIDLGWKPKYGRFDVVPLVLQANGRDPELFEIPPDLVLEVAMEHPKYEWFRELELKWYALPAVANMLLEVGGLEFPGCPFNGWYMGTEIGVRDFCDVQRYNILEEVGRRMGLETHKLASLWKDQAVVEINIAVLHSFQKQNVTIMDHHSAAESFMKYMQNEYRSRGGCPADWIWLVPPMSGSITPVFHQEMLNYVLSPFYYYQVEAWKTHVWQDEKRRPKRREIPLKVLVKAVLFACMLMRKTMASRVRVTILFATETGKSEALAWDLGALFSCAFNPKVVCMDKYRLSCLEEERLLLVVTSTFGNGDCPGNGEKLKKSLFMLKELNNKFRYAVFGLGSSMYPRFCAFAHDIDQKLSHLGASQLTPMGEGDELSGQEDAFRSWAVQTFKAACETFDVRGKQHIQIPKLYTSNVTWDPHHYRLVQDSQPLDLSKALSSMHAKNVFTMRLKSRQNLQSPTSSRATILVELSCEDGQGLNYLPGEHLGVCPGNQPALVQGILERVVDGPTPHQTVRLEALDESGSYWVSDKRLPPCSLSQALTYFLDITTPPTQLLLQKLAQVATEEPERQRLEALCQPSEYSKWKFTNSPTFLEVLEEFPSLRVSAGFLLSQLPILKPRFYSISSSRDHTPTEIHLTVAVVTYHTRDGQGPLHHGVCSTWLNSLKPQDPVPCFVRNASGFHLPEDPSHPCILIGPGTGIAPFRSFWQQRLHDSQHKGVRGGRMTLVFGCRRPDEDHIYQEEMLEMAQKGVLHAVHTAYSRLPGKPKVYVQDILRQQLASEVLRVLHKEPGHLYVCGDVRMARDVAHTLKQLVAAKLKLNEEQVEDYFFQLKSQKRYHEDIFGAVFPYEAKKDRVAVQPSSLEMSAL
procedure-summary: Inhibition of human iNOS expressed in baculovirus infected Spodoptera frugiperda cell using L-arginine as substrate preincubated for 15 mins followed by substrate addition measured after 15 mins by oxyhaemoglobin assay
parameter: IC50
Report the figure along with its unit, number first.

Given item CC(=N)NCCSCC[C@H](N)C(=O)O [GW-274150] , the value recorded as its IC50 is 2190 nM

====

assayed-system: Arginase-1 (Rattus norvegicus, UniProt P07824)
Sequence (P07824 whole entry): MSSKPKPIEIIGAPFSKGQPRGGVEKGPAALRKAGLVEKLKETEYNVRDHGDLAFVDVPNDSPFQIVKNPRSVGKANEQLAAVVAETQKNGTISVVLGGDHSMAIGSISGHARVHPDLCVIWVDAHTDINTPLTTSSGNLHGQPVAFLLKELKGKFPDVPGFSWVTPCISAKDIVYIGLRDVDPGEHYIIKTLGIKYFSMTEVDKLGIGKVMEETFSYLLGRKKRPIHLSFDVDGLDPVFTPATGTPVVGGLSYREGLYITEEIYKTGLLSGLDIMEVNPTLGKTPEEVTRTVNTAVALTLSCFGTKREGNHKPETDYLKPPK
procedure-summary: Inhibition of N-terminal hexa-histidine tagged thrombin-cleavable rat arginase 1 expressed in Escherichia coli DE3 cells measured after 90 mins by colorimetric urea assay
parameter: Ki (nM)
Give bare numbers, in nM.

Given item N[C@@H](CCCCB(O)O)C(=O)O , the value recorded as its Ki is 110
